What TGI was measured for each of the following?
Tested on: SF-268 CNS
test_name: NCI tumour cell line growth inhibition, 48 h

Ask: Retrieve TGI on SF-268 CNS; query "CCCN(CCC)c1ccc(/C=N/NC(=O)c2cccnc2)c(C)c1"
Result: 31.2 µM

Ask: Report its TGI with SF-268 CNS as the test system: "COc1ccc2cc3c4cc(OC)c(OC)cc4ccn3c2c1"
Result: > 100 µM

Ask: Look up SF-268 CNS data: TGI of "Cc1cccc2c(N)c3cccc(C(=O)NCC[N+](C)(C)Cc4ccccc4[N+](=O)[O-])c3nc12" , then report it.
Result: > 35.2 µM

Ask: Param request: TGI | system SF-268 CNS | item CC1(C)CN(CC(=O)O)CC(Cc2ccc(OCC(=O)O)cc2)N(CC(=O)O)CC(C)(C)SS1 (centres undefined)
Result: > 100 µM

Ask: Please respond with reported TGI (system SF-268 CNS) for CC(=O)NC(CCCNC(=O)N(C)N=O)C(=O)NCc1ccccc1 (centres undefined) .
Result: > 100 µM

Ask: Find the measured TGI of "CN(C)c1ccc(N=C2N=C(Nc3ccccc3)C(=Nc3ccccc3)S2)cc1" with SF-268 CNS as test system.
Result: > 100 µM

Ask: Quote SF-268 CNS TGI for entry "Cc1cc(-c2nc3sc(C)cn3c2/C=N/N=C(N)N)c(C)s1" .
Result: 28.9 µM

Ask: Please tell me the measured TGI for CC(C)[C@@]12C[C@@H](OC(=O)C3CO3)[C@@](C)(O1)[C@@H]1CC[C@@H](C)[C@H]1[C@@H]2OC(=O)/C=C/c1ccccc1 (some centres undefined) ; system: SF-268 CNS.
Result: 40.2 µM

Ask: Look up and report measured TGI (SF-268 CNS) for the following molecule: "COc1ccc(-c2cnc(-c3ccc(OC)cc3)n2-c2cc(OC)c(OC)c(OC)c2)cc1"
Result: > 100 µM

Ask: Report value only: TGI, SF-268 CNS, "O=c1c2ccccc2n2c(-c3ccccc3O)nnc2n1-c1ccccc1"
Result: > 100 µM

Ask: Look up and report measured TGI (SF-268 CNS) for the following molecule: Nc1nc(Cl)c(N)c(NCC2(CO)CCC(OCc3ccccc3)C2)n1 (centres undefined)
Result: > 100 µM

Ask: Consider the molecule "COC(=O)c1c(O)ccc2c1c1c(n2CCc2ccc(OC)c(OC)c2)C(=O)c2ccccc2C1=O" tested on SF-268 CNS; state its TGI.
Result: 41 µM

Ask: With SF-268 CNS as the test system, provide measured TGI for this molecule: "O=C(Nc1ccc(Cl)c(C(F)(F)F)c1)Nc1ccc(-c2cccnc2)cc1N1CCC(CO)CC1"
Result: 8.21 µM

Ask: State TGI (SF-268 CNS) of "O=C1Nc2cccc(Cl)c2/C1=C\c1cccnc1" .
Result: 25.6 µM

Ask: Please report the measured TGI for "COC(=O)[C@H](Cc1cn(C)cn1)NC(=O)[C@H](CC(C)C)NC(=O)Nc1cc(C(F)(F)F)cc(C(F)(F)F)c1" tested on SF-268 CNS.
Result: > 10 µM

Ask: Enter measured TGI, system SF-268 CNS, for the molecule shown: "COc1cc(-n2cc(-c3ccc(Cl)cc3)n(-c3ccccc3)c2=O)cc(OC)c1OC"
Result: > 100 µM

Ask: Lab note: record TGI of COc1cc(C2c3cc4c(cc3OC(NNC(N)=S)C2C)OCO4)cc(OC)c1OC (centres undefined) tested on SF-268 CNS.
Result: > 100 µM

Ask: Name the value of TGI reported for CCS1=C2C(=O)CC(C)(C)CC2=Nc2ccccc21 (centres undefined) when tested on SF-268 CNS.
Result: > 100 µM

Ask: Give TGI for this entry on SF-268 CNS: "CCOC(=O)c1c(CN2CCNCC2)nc2ccc(Cl)cc2c1-c1ccccc1"
Result: 17.9 µM

Ask: Lab note: SF-268 CNS assay, enter TGI for "Cc1cc(C)n(-c2nc(-n3nc(C)cc3C)nc(-n3nc(C)cc3C)n2)n1" here
Result: > 100 µM

Ask: Provide TGI, tested on SF-268 CNS, for "CC(C)(C)c1cc(C[P+](c2ccccc2)(c2ccccc2)c2ccccc2)cc(C(C)(C)C)c1O" .
Result: 15 µM

Ask: State TGI (SF-268 CNS) of "O=C1CN=C(c2ccc[nH]2)c2cc(Cl)ccc2N1" .
Result: > 100 µM

Ask: Give SF-268 CNS TGI for the following molecule: "COc1ccc(OC)c(N2CC(O)=C(c3nc4ccccc4s3)C2=N)c1"
Result: > 100 µM

Ask: Given "COC(=O)CCc1n(Cc2ccc3ccccc3c2)c2ccccc2[n+]1Cc1ccc2ccccc2c1" , report its TGI on SF-268 CNS.
Result: 2.99 µM

Ask: Print SF-268 CNS TGI for CN(C)CC1(C)CC/C(=C\c2ccc(Cl)cc2)C1=O (centres undefined) .
Result: > 100 µM

Ask: # return TGI of "CN(CCNC(=O)c1cn(C)c2c1ccc1ccccc12)CCNC(=O)c1cn(C)c2c1ccc1ccccc12" (system: SF-268 CNS)
Result: > 21.3 µM

Ask: For SF-268 CNS, give TGI of the listed molecule: O=S(=O)(c1ccccc1)C1CC(c2nc3ccccc3[nH]2)=NO1 (centres undefined)
Result: > 100 µM

Ask: Lab note: SF-268 CNS assay, enter TGI for O=C1C(Cl)C(c2ccccc2Cl)N1n1cnc2ccccc2c1=O (centres undefined) here
Result: > 100 µM

Ask: Fill in: TGI on SF-268 CNS, entry "CC(C)CCN(CCC(C)C)CC(=O)Nc1ccc(S(=O)(=O)c2ccc(NC(=O)CN(CCC(C)C)CCC(C)C)cc2)cc1"
Result: 4.68 µM

Ask: Determine reported TGI for OCC1OC(N2C=C(c3nc4ccccc4s3)C3C=CC=CC32)C(O)C(O)C1O (centres undefined) ; test system: SF-268 CNS.
Result: > 50 µM

Ask: Please tell me the measured TGI for "COc1cc2c(c(OC)c1OC)-c1ccc(SC)c(=O)cc1[C@@H](NC(=O)c1cccc([N+](=O)[O-])c1)CC2" ; system: SF-268 CNS.
Result: 16.5 µM

Ask: Using SF-268 CNS as the test system, report measured TGI of "O=C1c2ccccc2CC12Cc1cc3c(cc1C2)CCC3" .
Result: > 100 µM

Ask: Write TGI of "Brc1ccc(-c2[nH]c3ccccc3c2/C=N\Nc2ccc(-c3nc4ccccc4[nH]3)cc2)cc1" ; system used: SF-268 CNS
Result: 6.28 µM

Ask: Provide SF-268 CNS TGI reading for CCOC(=O)Cc1csc(NC(=O)C(OC(=O)c2ccc(Cl)cc2)c2ccccc2)n1 (centres undefined) .
Result: > 100 µM

Ask: Give TGI only, for COc1ccc(C2(CC(C)C)CCNC2)cc1OC (centres undefined) , using SF-268 CNS data.
Result: > 100 µM

Ask: State TGI on SF-268 CNS. Entry: "Cn1cnc([N+](=O)[O-])c1Sc1n[nH]c(-c2ccc(Cl)cc2)n1"
Result: 50.7 µM

Ask: Give measured TGI for "CCOC(=O)NC(=O)c1cn(CCSCCOC(=O)NCCCCCCNC(=O)OCCSCCn2cc(C(=O)NC(=O)OCC)c(=O)n(C)c2=O)c(=O)n(C)c1=O" (SF-268 CNS).
Result: > 100 µM

Ask: Print SF-268 CNS TGI for "Cn1c(=O)c2c(nc3n2CCCC(=O)N3CCCCl)n(C)c1=O" .
Result: > 100 µM

Ask: System SF-268 CNS. Read-out TGI. Item O=C1OC(c2ccc(O)cc2)(c2ccc(O)cc2)c2ccc(Cl)c3cccc1c23 (tested in a mixture with another compound) . Report value.
Result: 52.8 µM

Hey, just so you know, these numbers are from PubChem BioAssay (NCI).
